TESTED TARGET: NMDAR2A expressing HEK cell membranes (Homo sapiens, UniProt Q05586+Q12879)
Construct: expressed in transfected cells; host or cells: HEK cells (membrane extract)
Sequence (Q12879 23-1464, other chains not shown): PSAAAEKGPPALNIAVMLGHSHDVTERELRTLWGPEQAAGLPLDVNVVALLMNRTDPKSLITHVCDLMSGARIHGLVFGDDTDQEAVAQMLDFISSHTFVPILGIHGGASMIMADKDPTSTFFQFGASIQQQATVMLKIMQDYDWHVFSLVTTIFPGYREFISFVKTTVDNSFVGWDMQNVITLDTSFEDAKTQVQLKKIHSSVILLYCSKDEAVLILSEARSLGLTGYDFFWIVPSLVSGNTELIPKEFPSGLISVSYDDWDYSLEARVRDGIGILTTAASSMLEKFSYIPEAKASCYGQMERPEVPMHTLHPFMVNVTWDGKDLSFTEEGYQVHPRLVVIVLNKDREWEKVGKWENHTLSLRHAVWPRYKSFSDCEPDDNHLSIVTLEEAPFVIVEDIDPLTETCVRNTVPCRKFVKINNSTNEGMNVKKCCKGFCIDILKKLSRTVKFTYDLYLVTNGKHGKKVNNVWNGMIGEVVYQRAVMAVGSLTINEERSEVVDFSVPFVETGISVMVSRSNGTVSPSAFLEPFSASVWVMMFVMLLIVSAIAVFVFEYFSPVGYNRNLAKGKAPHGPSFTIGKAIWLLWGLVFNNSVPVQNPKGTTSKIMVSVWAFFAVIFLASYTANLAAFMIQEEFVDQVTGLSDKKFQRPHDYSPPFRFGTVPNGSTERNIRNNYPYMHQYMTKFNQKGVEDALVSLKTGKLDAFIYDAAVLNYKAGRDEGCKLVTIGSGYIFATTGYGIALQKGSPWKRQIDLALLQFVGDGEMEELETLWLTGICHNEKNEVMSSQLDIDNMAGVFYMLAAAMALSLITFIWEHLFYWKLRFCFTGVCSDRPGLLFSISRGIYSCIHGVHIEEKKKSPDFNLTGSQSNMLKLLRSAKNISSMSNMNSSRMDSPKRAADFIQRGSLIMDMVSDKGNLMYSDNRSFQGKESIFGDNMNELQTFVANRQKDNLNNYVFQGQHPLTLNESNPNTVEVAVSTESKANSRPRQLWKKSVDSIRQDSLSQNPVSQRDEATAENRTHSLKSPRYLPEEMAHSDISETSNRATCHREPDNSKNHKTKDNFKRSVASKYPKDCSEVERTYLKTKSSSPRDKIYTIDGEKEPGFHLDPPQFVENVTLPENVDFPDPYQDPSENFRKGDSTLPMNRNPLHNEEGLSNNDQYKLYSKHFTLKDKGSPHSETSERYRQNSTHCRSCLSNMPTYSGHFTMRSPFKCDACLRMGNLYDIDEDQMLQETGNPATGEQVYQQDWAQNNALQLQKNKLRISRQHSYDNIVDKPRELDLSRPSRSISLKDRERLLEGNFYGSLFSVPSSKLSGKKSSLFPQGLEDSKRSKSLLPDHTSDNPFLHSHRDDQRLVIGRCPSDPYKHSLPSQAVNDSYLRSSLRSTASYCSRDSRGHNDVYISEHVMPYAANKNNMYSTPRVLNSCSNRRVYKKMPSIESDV
MEASUREMENT DESCRIPTION: NMDAR agonist assay, [3H]MK-801 binding, NMDAR2A
Format: biochemical
TEST CONTEXT: 50 μM glutamate; [3H]MK-801 binding; read-out: NMDAR2A: log EC50 (converted)
Procedure: (nonequilibrium conditions). The baseline value was determined from the best fit curve of the DPM values modeled using the GraphPad program and the log(agonist) vs. response(three parameters) algorithm was then subtracted from all points in the dataset.
VALUE KIND: EC50

Q: Give reported EC50 value for C[C@@H](O)[C@@H](C(N)=O)N1CC2(CCC3(CN([C@H](C(N)=O)[C@@H](C)O)C3=O)N2C(=O)OC(C)(C)C)C1=O (stereo partly shown)
Result: > 100 nM

Q: Give reported EC50 value for C[C@@H](O)[C@H](NCC1CCC2(CN(OCc3ccccc3)C2=O)N1C(=O)OC(C)(C)C)C(=O)N(C)C (single isomer, unassigned) [BQ]
Result: > 100 nM

Q: Give reported EC50 value for O=C1NCC12CCC1(CNC1=O)N2Cc1ccccc1 (single isomer, unassigned)
Result: < 1 nM

Q: Give reported EC50 value for CNC(=O)[C@@H](NCC1CCC2(CNC2=O)N1C(=O)OC(C)(C)C)[C@@H](C)O (stereo partly shown)
Result: > 100 nM

Q: Give reported EC50 value for CC(C)(C)OC(=O)N1C2(CCC13CNC3=O)CNC2=O (stereo not shown)
Result: > 100 nM

Q: Give reported EC50 value for C[C@@H](O)[C@H](NC1CN(C(=O)OC(C)(C)C)C2(CNC2=O)C1)C(N)=O (single isomer, unassigned) [CG]
Result: < 1 nM

Q: Give reported EC50 value for CC(O)C(NCC1CCC2(CN(OCc3ccccc3)C2=O)N1)C(N)=O (single isomer, unassigned) [CK]
Result: > 100 nM

----------
TESTED TARGET: NMDAR2B expressing HEK cell membranes (Homo sapiens)
Construct: expressed in transfected cells; host or cells: HEK cells (membrane extract)
MEASUREMENT DESCRIPTION: NMDAR agonist assay, [3H]MK-801 binding, NMDAR2B
Format: biochemical
TEST CONTEXT: 50 μM glutamate; relative to 1 mM glycine
VALUE KIND: NMDAR2B: % maximal [3H]MK-801 binding relative to 1 mM glycine

Would you please look over these solved cases?
COMPOUND | TESTED TARGET | VALUE REPORTED
CC(C)C(=O)N1C(C(=O)N[C@H](C(N)=O)[C@@H](C)O)CCC12CNC2=O (single isomer, unassigned) [AS] | NMDAR2B expressing HEK cell membranes (Homo sapiens) | + (<100%=+)
C[C@@H](O)[C@H](NC(=O)C1CCC2(CNC2=O)N1Cc1ccccc1)C(N)=O (single isomer, unassigned) [AN] | NMDAR2B expressing HEK cell membranes (Homo sapiens) | + (<100%=+)
CC(C)CN1C(C(=O)N[C@H](C(N)=O)[C@@H](C)O)CCC12CNC2=O (single isomer, unassigned) [BA] | NMDAR2B expressing HEK cell membranes (Homo sapiens) | − (−=0)
CC(C)C(=O)N1C(C(=O)N[C@H](C(N)=O)[C@@H](C)O)CCC12CNC2=O (single isomer, unassigned) [AR] | NMDAR2B expressing HEK cell membranes (Homo sapiens) | − (−=0)

Q: Give reported NMDAR2B: % maximal [3H]MK-801 binding relative to 1 mM glycine value for CC(C)CN1C(C(N)=O)CCC12CNC2=O (single isomer, unassigned)
Result: + (<100%=+)

Q: Give reported NMDAR2B: % maximal [3H]MK-801 binding relative to 1 mM glycine value for O=C1NCC12CN(Cc1ccc(F)cc1)C1(CNC1=O)C2 (single isomer, unassigned) [DM]
Result: + (<100%=+)

Q: Give reported NMDAR2B: % maximal [3H]MK-801 binding relative to 1 mM glycine value for O=C1NCC12CCC1(CNC1=O)N2Cc1ccccc1 (single isomer, unassigned) [AC-1]
Result: + (<100%=+)

----------
MEASUREMENT DESCRIPTION: Oral pharmacokinetics (plasma, brain, CSF)
Type: in vivo
TEST CONTEXT: Sprague Dawley, rat, plasma, po, 10 mg/kg, Sprague Dawley rats, per os, plasma, read-out: Cmax
Exercise: for every item that follows, state its recorded Cmax.
In your response, put the unit directly after the numeric value.

Q: Give reported Cmax value for CC(C)C(=O)N1C2(CCC13CNC3=O)CNC2=O (single isomer, unassigned)
Result: 655 ng/mL

Q: Give reported Cmax value for CC(C)C(=O)N1C(C(=O)N[C@H](C(N)=O)[C@@H](C)O)CCC12CNC2=O (single isomer, unassigned)
Result: 75.4 ng/mL

Q: Give reported Cmax value for CC(C)(C)OC(=O)N1C(C(N)=O)CCC12CN(OCc1ccccc1)C2=O (single isomer, unassigned)
Result: 859 ng/mL

Q: Give reported Cmax value for CC(=O)N1C(C(=O)N[C@H](C(N)=O)[C@@H](C)O)CCC12CNC2=O (stereo partly shown)
Result: 247 ng/mL

Q: Give reported Cmax value for C[C@@H](O)[C@@H](C(N)=O)N1CC2(CCC3(CN([C@H](C(N)=O)[C@@H](C)O)C3=O)N2C(=O)OC(C)(C)C)C1=O (stereo partly shown)
Result: 156 ng/mL

Q: Give reported Cmax value for C[C@@H](O)[C@H](NC(=O)C1CCC2(CNC2=O)N1)C(N)=O (single isomer, unassigned)
Result: 133 ng/mL

Q: Give reported Cmax value for C[C@@H](O)[C@H](NC(=O)C1CCC2(CNC2=O)N1Cc1ccccc1)C(N)=O (single isomer, unassigned)
Result: 34.2 ng/mL

----------
Exercise: for every item that follows, state its recorded EC50.
TESTED TARGET: NMDAR2B expressing HEK cell membranes (Homo sapiens, UniProt Q13224)
Construct: expressed in transfected cells; host or cells: HEK cells (membrane extract)
Sequence (Q13224 27-1484, other chains not shown): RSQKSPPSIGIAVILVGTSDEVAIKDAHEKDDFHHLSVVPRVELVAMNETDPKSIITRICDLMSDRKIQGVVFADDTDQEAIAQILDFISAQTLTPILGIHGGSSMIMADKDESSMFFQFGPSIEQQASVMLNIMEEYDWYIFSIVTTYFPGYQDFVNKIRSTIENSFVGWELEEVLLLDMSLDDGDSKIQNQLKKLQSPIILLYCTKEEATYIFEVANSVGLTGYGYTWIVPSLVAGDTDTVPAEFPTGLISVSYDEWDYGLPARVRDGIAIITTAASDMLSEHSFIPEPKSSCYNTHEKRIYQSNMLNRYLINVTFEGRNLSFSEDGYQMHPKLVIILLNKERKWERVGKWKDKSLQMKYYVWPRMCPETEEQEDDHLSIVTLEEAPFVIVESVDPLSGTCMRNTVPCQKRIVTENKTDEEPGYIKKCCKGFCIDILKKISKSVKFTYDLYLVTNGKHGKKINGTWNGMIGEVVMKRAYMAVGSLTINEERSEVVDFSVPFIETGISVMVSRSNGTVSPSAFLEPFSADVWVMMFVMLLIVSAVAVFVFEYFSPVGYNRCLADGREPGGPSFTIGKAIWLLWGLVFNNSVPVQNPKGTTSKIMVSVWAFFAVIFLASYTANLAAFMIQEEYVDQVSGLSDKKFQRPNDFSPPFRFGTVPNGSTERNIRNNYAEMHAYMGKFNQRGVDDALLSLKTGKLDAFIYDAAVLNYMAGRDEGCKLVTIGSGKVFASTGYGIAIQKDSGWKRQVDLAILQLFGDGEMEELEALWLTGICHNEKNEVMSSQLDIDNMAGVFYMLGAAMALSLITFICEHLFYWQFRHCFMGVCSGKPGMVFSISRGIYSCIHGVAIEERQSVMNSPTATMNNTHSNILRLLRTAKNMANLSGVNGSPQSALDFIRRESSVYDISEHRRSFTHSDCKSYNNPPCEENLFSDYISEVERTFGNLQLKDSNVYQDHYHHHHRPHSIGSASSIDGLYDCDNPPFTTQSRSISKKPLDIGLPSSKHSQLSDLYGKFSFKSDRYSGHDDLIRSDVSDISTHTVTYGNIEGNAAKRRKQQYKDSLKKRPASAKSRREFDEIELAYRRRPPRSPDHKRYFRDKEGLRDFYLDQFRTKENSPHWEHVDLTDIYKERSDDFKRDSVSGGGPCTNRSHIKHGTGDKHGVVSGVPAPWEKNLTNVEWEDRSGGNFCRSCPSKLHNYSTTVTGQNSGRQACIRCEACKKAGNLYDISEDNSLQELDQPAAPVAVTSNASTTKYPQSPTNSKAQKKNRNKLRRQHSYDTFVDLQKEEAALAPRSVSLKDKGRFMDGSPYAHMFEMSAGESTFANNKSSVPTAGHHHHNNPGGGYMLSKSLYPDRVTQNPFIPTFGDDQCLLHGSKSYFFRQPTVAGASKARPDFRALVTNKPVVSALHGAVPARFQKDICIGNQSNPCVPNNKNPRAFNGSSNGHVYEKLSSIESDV
MEASUREMENT DESCRIPTION: NMDAR agonist assay, [3H]MK-801 binding, NMDAR2B
Format: biochemical
TEST CONTEXT: 50 μM glutamate; [3H]MK-801 binding; read-out: NMDAR2B log EC50 (converted)
Procedure: (nonequilibrium conditions). The baseline value was determined from the best fit curve of the DPM values modeled using the GraphPad program and the log(agonist) vs. response(three parameters) algorithm was then subtracted from all points in the dataset.

Q: Give reported EC50 value for O=C1NCC12CN(Cc1ccc(F)cc1)C1(CNC1=O)C2 (single isomer, unassigned) [DL]
Result: < 1 nM

Q: Give reported EC50 value for O=C1NCC12CN(Cc1ccc(F)cc1)C1(CNC1=O)C2 (single isomer, unassigned) [DN]
Result: < 1 nM

Q: Give reported EC50 value for O=C1NCC12CCC1(CNC1=O)N2Cc1ccc(F)cc1 (single isomer, unassigned)
Result: < 1 nM

Q: Give reported EC50 value for CC(C)CN1C(C(N)=O)CCC12CNC2=O (single isomer, unassigned)
Result: < 1 nM

Q: Give reported EC50 value for O=C1NCC12CN(Cc1ccc(F)cc1)C1(CNC1=O)C2 (single isomer, unassigned) [DM]
Result: < 1 nM

Q: Give reported EC50 value for CNC(=O)[C@@H](NCC1CCC2(CN(OCc3ccccc3)C2=O)N1C(=O)OC(C)(C)C)[C@@H](C)O (single isomer, unassigned)
Result: > 100 nM

----------
Exercise: for every item that follows, state its recorded Emax.
TESTED TARGET: NMDAR2A expressing HEK cell membranes (Homo sapiens, UniProt Q05586+Q12879)
Construct: expressed in transfected cells; host or cells: HEK cells (membrane extract)
MEASUREMENT DESCRIPTION: NMDAR agonist assay, [3H]MK-801 binding, NMDAR2A
Type: biochemical
TEST CONTEXT: 50 μM glutamate; relative to 1 mM glycine; read-out: NMDAR2A: % maximal [3H]MK-801 binding relative to 1 mM glycine
Protocol: (nonequilibrium conditions). The baseline value was determined from the best fit curve of the DPM values modeled using the GraphPad program and the log(agonist) vs. response(three parameters) algorithm was then subtracted from all points in the dataset.

Q: Give reported Emax value for O=C1NCC12CCC1(CNC1=O)N2Cc1ccccc1 (single isomer, unassigned) [AC-2]
Result: < 100%

Q: Give reported Emax value for COc1ccc(CN2CC3(CC(N[C@H](C(=O)O)[C@@H](C)O)CN3C(=O)OC(C)(C)C)C2=O)cc1 (stereo partly shown) [CF]
Result: 0%

Q: Give reported Emax value for CNC(=O)C(C(C)O)N(C)CC1CCC2(CN(OCc3ccccc3)C2=O)N1 (single isomer, unassigned) [CW]
Result: < 100%

Q: Give reported Emax value for COc1ccc(CN2CC3(CC(N[C@H](C(N)=O)[C@@H](C)O)CN3C(=O)OC(C)(C)C)C2=O)cc1 (stereo partly shown) [CA]
Result: 0%

Q: Give reported Emax value for C[C@@H](O)[C@H](NC(=O)C1CCC2(CNC2=O)N1)C(N)=O (single isomer, unassigned) [AQ-1]
Result: < 100%

Q: Give reported Emax value for CNC(=O)[C@@H](NCC1CCC2(CN(OCc3ccccc3)C2=O)N1C(=O)OC(C)(C)C)[C@@H](C)O (single isomer, unassigned) [BM]
Result: 0%

Q: Give reported Emax value for COc1ccc(CN2CC3(CC(N[C@H](C(=O)O)[C@@H](C)O)CN3C(=O)OC(C)(C)C)C2=O)cc1 (single isomer, unassigned) [CE]
Result: 0%

Q: Give reported Emax value for C[C@@H](O)[C@H](NC(=O)C1CCC2(CNC2=O)N1Cc1ccccc1)C(N)=O (single isomer, unassigned) [AL-1]
Result: < 100%

Q: Give reported Emax value for NC(=O)C1CCC2(CNC2=O)N1 (single isomer, unassigned) [DA]
Result: < 100%

Q: Give reported Emax value for COc1ccc(CN2CC3(CC(N[C@H](C(N)=O)[C@@H](C)O)CN3)C2=O)cc1 (stereo partly shown) [CC]
Result: < 100%

Q: Give reported Emax value for C[C@@H](O)[C@@H](C(=O)N(C)C)N(C)CC1CCC2(CN(OCc3ccccc3)C2=O)N1C(=O)OC(C)(C)C (stereo partly shown) [BW]
Result: < 100%

Q: Give reported Emax value for CC(C)(C)OC(=O)N1C(C(N)=O)CCC12CNC2=O (single isomer, unassigned) [BE]
Result: < 100%

Q: Give reported Emax value for CC(C)CN1C(C(N)=O)CCC12CNC2=O (single isomer, unassigned) [DC]
Result: < 100%

Hello, the source for this data is patent US11028095B2, in case you need it.
